molecular target: Glc(a1-6)Glc(a1-6)Glc(a1-6)Glc; assay: glycan array binding signal (z-score within array); higher = stronger binding; conditions: glycan notation: IUPAC condensed, linker removed
This excerpt belongs to a sample that is enriched for the strongest signals.
glycan array binding signal (z-score) for assorted binders
I only need the number, thanks.

[[record]]
binder = "XL-35 (Xenopus laevis) (protein) MLVHILLLLVTGGLSQSCDPVVIVASKNMVKQLDCDKFRNCKEIKDSNEEAQDGIYTLTSPDGISYQTFCDMTTNGGGWTLVASVHENNMAGKCTIGDRWSSQQGNRADYPEGDGNWANYNTFGSAGGATSDDYKNPGYYDIEAYNLGVWHVPNKTPLSVWRNSSLQRYRTTDGILFKHGGNLFSLYRIYPVKYGIGSCSKDSGPTVPVVYDLGSANLTASFYSPGFRSQFTPGYIQFRPINTEKAALALCPGMKMESCNVEHVCIGGGGYFPEADPRQCGDFAAYDFNGYGTKKFNSAGIEITEAAVLLFYL"
experimentalresult = 0.158


Next binder, glycan array binding signal (z-score) to be filled in.
-- ask Please look up its glycan array binding signal (z-score): MGL1 (Mus musculus), P49300 (protein) MIYENLQNSRIEEKTQEPGKAPSQSFLWRILSWTHLLLFSLGLSLLLLVVVSVIGSQNSQLRRDLGTLRATLDNTTSKIKAEFQSLDSRADSFEKGISSLKVDVEDHRQELQAGRDLSQKVTSLESTVEKREQALKTDLSDLTDHVQQLRKDLKALTCQLANLKNNGSEVACCPLHWTEHEGSCYWFSESEKSWPEADKYCRLENSHLVVVNSLEEQNFLQNRLANVVSWIGLTDQNGPWRWVDGTDFEKGFKNWAPLQPDNWFGHGLGGGEDCAHITTGGPWNDDVCQRTFRWICEMKLAKES
-- reply -0.085

Origin of the recorded values: the supplement of paper PMC8728848
